Target: T1, mouse His6-GITR (mouse, UniProt O35714 20-153)
T1 construct: His6-tagged recombinant protein; also called mGITR-His; mouse GITR-His
T1 sequence: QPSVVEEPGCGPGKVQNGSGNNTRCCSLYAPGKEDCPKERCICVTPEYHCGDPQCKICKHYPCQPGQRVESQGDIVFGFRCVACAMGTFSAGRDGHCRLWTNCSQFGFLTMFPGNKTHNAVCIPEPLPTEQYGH
Assay: ELISA, scFv periplasmic extract on coated His6-GITR
assayMetric: mGITR-His/BKG (fold over background)

GITR-Mab-20 scFv (scFv, V domains shown, scFv in periplasmic extract, V5 tag) VH: QVQLVQSGAEVKKPGASVKVSCKASGGTFSNYAISWVRQAPGQGLEWMGVINPRGGSTTYAQKFQGRVTMTRDTSTSTVYMELSSLRSEDTAVYYCARDYSIPYYGMDVWGQGTTVTVSS VL: DIQMTQSPSSLSASVGDRVTITCRASQSISTYLNWYQQKPGKAPKLLIYDASNLETGVPSRFSGSGSGTDFTLTISSLQPEDFATYYCQQSYSTPLTFGGGTKVEIK :: 1.1
GITR-Mab-39 scFv (scFv, V domains shown, scFv in periplasmic extract, V5 tag) VH: EVQLLESGGGLVKPGGSLRLSCAASGFTFSSYWMSWVRQAPGKGLEWVSSISWSSTYIYYADSVKGRFTISRDDSKNTLYLQMNSLKTEDTAVYYCARDGQLGHWHFDLWGRGTLVTVSS VL: DIQMTQSPSSLSASVGDRVTITCRASQSISDWLAWYQQKPGKAPKLLIYEASKLATGVPSRFSGSGSGTDFTLTISSLQPEDFATYYCQQSYTTPLTFGGGTKVEIK :: 4.4
GITR-Mab-26 scFv (scFv, V domains shown, scFv in periplasmic extract, V5 tag) VH: QVQLVQSGAEVKKPGASVKVSCKASGYTFTSYGISWVRQAPGQGLEWMGWMNPNNGNTVYAQKFQGRVTMTRDTSTSTVYMELSSLRSEDTAVYYCAKDSDWYGAFDIWGQGTMVTVSS VL: DIQMTQSPSSLSASVGDRVTITCQASQSISRWLAWYQQKPGKAPKLLIYSASSLQSGVPSRFSGSGSGTDFTLTISSLQPEDFATYYCQQSYSTPWTFGQGTKLEIK :: 1.1
GITR-Mab-41 scFv (scFv, V domains shown, scFv in periplasmic extract, V5 tag) VH: QVQLVQSGAEVKKPGASVKVSCKASGGSFSDYAVSWVRQAPGQGLEWMGWMNPNSGNTGYAQKFQGRVTMTRDTSTSTVYMELSSLRSEDTAVYYCARELVRDGYNFALDYWGQGTLVTVSS VL: DIQMTQSPSSLSASVGDRVTITCRASQDIRNDLAWYQQKPGKAPKLLIYAASSLQSGVPSRFSGSGSGTDFTLTISSLQPEDFATYYCQQSFSTFYTFGQGTKLEIK :: 10.4
GITR-Mab-45 scFv (scFv, V domains shown, scFv in periplasmic extract, V5 tag) VH: QVQLVQSGAEVKKPGASVKVSCKASGYTFTSYGISWVRQAPGQGLEWMGWMNPNSGNTGYAQKFQGRVTMTRDTSTSTVYMELSSLRSEDTAVYYCAREVYGDLDYWGQGTLVTVSS VL: DIQMTQSPSSLSASVGDRVTITCRASQGIDNWLAWYQQKPGKAPKLLIYGASTLQSGVPSRFSGSGSGTDFTLTISSLQPEDFATYYCQQSYTARFTFGPGTKVDIK :: 4.5
